- measuredOn: T1, PD-L1 Protein, Cynomolgus, Recombinant (His Tag) (cynomolgus)
- T1 construct: Bought protein; also called QPP10.1; SinoBiologic 90251-C08H
- methodSummary: SPR Biacore T200, antibody captured, PD-L1 His as analyte, 1:1 binding
readoutLabel: Kd (nM)
Quick reminder: number only, in nM, skip the unit.

Check out these entries, answers already filled in.
{"columns": ["binder", "readoutLabel", "recordedMeasurement"],
 "data": [
  ["QP325 (Fc fusion, Humanization design of QP1166; VHH-Fc; also called 1166-V3; QD325; not shown: human IgG1-FC constant region fused to the C terminal of the VHH) EVQLLESGGGLVQPGGSLRLSCAASGFTYGTYAMSWFRQAPGKGLEGVACIDIYGRTSYTDPVKGRFTISQDNSKNTLYLQMNSLRAEDTAVYYCAARDFGYCTASWVHEGFSRYWGQGTLVTVSS", "Kd", 19.6],
  ["QP1166 (Fc fusion, Chimeric antibody before humanization; also called QD1166; nanobody QP1166; not shown: Fc part: called chimeric antibody, cloned in vector VH-FC-pQD) QVQLVESGGDSVQPGGSLRLSCAASGFTYGTYAMSWFRQAPGKEREGVACIDIYGRTSYTDPVKGRFTISQDNAKNTLYLQMNSLKPEDTAMYYCAARDFGYCTASWVHEGFSRYWGQGTQVTVSS", "Kd", 5.6],
  ["QP1162 (Fc fusion, Chimeric antibody before humanization; also called QD1162; nanobody QP1162; not shown: Fc part: called chimeric antibody, cloned in vector VH-FC-pQD) QVQLVESGGGSVQSGGSLRLSCAASGFTYGTYAMSWFRQAPGKEREGVACIDIYGRASYTDPVKGRFTISQDNAKNTLYLQMNSLKPEDTAMYYCAARDFGYCTASWVHEGFSRYWGQGTQVTVSS", "Kd", 5.6]
]}

Then there is this binder:
# lookup: Kd of QP322 (Fc fusion, Humanization design of QP1162; VHH at the N-terminal of FC; also called 1162-V3; QD322; not shown: human IgG1-FC constant region fused to the C terminal of the VHH) EVQLLESGGGLVQPGGSLRLSCAASGFTYGTYAMSWFRQAPGKGREGVACIDIYGRASYTDPVKGRFTISQDNSKNTLYLQMNSLKAEDTAVYYCAARDFGYCTASWVHEGFSRYWGQGTLVTVSS
5.39

Numbers sourced from patent US20230183352A1.
